# Study target: NCEA (CEA/CEACAM5 N domain to B3 domain) (Homo sapiens, UniProt P06731 P06731:35-675)
# Sequence (P06731 35-675, one chain of several): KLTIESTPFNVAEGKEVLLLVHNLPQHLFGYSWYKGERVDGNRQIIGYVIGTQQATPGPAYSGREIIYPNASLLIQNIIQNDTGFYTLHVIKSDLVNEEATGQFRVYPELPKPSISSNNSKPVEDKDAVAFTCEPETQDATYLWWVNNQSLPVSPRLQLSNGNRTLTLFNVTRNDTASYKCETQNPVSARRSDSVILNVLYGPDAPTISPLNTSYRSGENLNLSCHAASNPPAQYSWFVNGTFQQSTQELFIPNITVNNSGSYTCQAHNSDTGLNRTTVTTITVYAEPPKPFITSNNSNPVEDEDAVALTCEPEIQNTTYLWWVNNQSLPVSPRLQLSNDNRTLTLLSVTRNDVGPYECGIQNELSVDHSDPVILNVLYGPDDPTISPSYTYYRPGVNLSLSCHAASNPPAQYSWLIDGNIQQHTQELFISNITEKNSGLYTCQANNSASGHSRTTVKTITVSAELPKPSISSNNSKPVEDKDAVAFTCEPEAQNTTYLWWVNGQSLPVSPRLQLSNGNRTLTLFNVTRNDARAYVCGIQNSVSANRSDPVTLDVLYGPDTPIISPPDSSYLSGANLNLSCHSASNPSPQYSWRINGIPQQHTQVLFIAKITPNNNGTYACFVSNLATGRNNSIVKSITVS
# Measurement notes: SPR; Biacore 2000
# Test conditions: tags: pET28a(+), Ni-NTA (His), E. coli BL21; hairpin-loop (predicted)
Measurement label: Kd
Remember to quote the unit after the number.

Query string: # lookup: Kd of GUGCUGGGCUAGAAUAAUAAUAAGAAAACCAGUAC (ssRNA, 2'-F pyrimidines (C and U)) [Truncated GROUP 1-2 (19-2)]
Result string: 4 nM

Query string: # lookup: Kd of GCGGAAGCGUGCUGGGCUAGAAUAAUAAUAAGAAAACCAGUACUUUCGU (ssRNA, 2'-F pyrimidines (C and U)) [Truncated GROUP 1-1 (19-1, YJ-1)]
Result string: 0.77 nM

Reference source for all entries: patent US20140235698A1
